Values were extracted from ChEMBL document CHEMBL5126632.

Give pKd for every item shown.
- TARGET_SYSTEM: Quadruplex DNA
- PROTOCOL: Binding affinity to c-kit2 G4 quadruplex d(CGGGCGGGCGCTAGGGAGGGT) DNA (unknown origin) assessed as dissociation constant by Microscale thermophoresis analysis
- Type: nucleic-acid assay
Would you please state pKd, meaning minus log10 of the concentration in mol/L, as a bare number?

Query: Look up pKd for this molecule: Cc1ccc(-c2nc3ccn4c(/C=N/NC(=N)N)c(-c5ccccc5)nc4n3c2/C=N/NC(=N)N)cc1
Response: 7.40

Query: Look up pKd for this molecule: N=C(N)N/N=C/c1c(-c2ccccc2)nc2ccn3c(C=O)c(-c4ccccc4)nc3n12
Response: 6.43

Query: Look up pKd for this molecule: Cc1ccc(-c2nc3ccn4c(/C=N/NC5=NCCN5)c(-c5ccccc5)nc4n3c2/C=N/NC2=NCCN2)cc1
Response: 6.89

Query: Look up pKd for this molecule: N=C(N)N/N=C/c1c(-c2ccccc2)nc2ccn3c(CO)c(-c4ccccc4)nc3n12
Response: 5.89

Query: Look up pKd for this molecule: OCc1c(-c2ccccc2)nc2n1ccc1nc(-c3ccccc3)c(/C=N/NC3=NCCN3)n12
Response: 5.60

Query: Look up pKd for this molecule: Clc1ccc(-c2nc3ccn4c(/C=N/NC5=NCCN5)c(-c5ccccc5)nc4n3c2/C=N/NC2=NCCN2)cc1
Response: 6.31

Query: Look up pKd for this molecule: Clc1ccc(-c2nc3n(ccc4nc(-c5ccccc5)c(/C=N/NC5=NCCN5)n43)c2/C=N/NC2=NCCN2)cc1
Response: 6.30

---

- PROTOCOL: Stabilization of F-c-kit1-T (unknown origin) assessed as difference in melting temperature t1/2 in presence of d(CGC GAA TTC GCG TIT CGC GAA TTC GCG) DNA hairpin (unknown origin) measured at 1:15 G4 to hairpin DNA ratio by FRET assay
Give ΔTm for every item shown.
Quick note: give the figure in °C, leave out the unit.

Query: Look up ΔTm for this compound: Clc1ccc(-c2nc3ccn4c(/C=N/NC5=NCCN5)c(-c5ccccc5)nc4n3c2/C=N/NC2=NCCN2)cc1
Response: 21.4

Query: Look up ΔTm for this compound: Cc1ccc(-c2nc3ccn4c(/C=N/NC5=NCCN5)c(-c5ccccc5)nc4n3c2/C=N/NC2=NCCN2)cc1
Response: 21.4

Query: Look up ΔTm for this compound: OCc1c(-c2ccccc2)nc2n1ccc1nc(-c3ccccc3)c(/C=N/NC3=NCCN3)n12
Response: 7.8

Query: Look up ΔTm for this compound: Cc1ccc(-c2nc3ccn4c(/C=N/NC(=N)N)c(-c5ccccc5)nc4n3c2/C=N/NC(=N)N)cc1
Response: 22.2

Query: Look up ΔTm for this compound: Clc1ccc(-c2nc3n(ccc4nc(-c5ccccc5)c(/C=N/NC5=NCCN5)n43)c2/C=N/NC2=NCCN2)cc1
Response: 24.8

Query: Look up ΔTm for this compound: N=C(N)N/N=C/c1c(-c2ccccc2)nc2ccn3c(CO)c(-c4ccccc4)nc3n12
Response: 11.1

Query: Look up ΔTm for this compound: N=C(N)N/N=C/c1c(-c2ccccc2)nc2ccn3c(C=O)c(-c4ccccc4)nc3n12
Response: 21.6

---

Give ΔTm for every item shown.
- System: Quadruplex DNA
- PROTOCOL: Stabilization of human Tel26 G4 quadruplex DNA assessed as thermal stability by measuring difference in melting temperature t1/2 by circular dichroism spectroscopy
- Type: nucleic-acid assay
Quick note: give the figure in °C, leave out the unit.

Query: Recall the recorded ΔTm for OCc1c(-c2ccccc2)nc2n1ccc1nc(-c3ccccc3)c(/C=N/NC3=NCCN3)n12 with Quadruplex DNA and state it.
Response: 2

Query: Recall the recorded ΔTm for Cc1ccc(-c2nc3n(ccc4nc(-c5ccccc5)c(/C=N/NC(=N)N)n43)c2/C=N/NC(=N)N)cc1 with Quadruplex DNA and state it.
Response: 6.3

Query: Recall the recorded ΔTm for Clc1ccc(-c2nc3n(ccc4nc(-c5ccc(Cl)cc5)c(/C=N/NC5=NCCN5)n43)c2/C=N/NC2=NCCN2)cc1 with Quadruplex DNA and state it.
Response: 3.3

---

- System: Quadruplex DNA
- PROTOCOL: Stabilization of c-kit1 G4 quadruplex d(DNA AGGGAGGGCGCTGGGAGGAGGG) DNA (unknown origin) assessed as thermal stability by measuring difference in melting temperature t1/2 by circular dichroism spectroscopy (reference value: 54 +/- 0.5 degC)
- Format: nucleic-acid assay
Give ΔTm for every item shown.
Quick note: give the figure in °C, leave out the unit.

Query: Recall the recorded ΔTm for Cc1ccc(-c2nc3n(ccc4nc(-c5ccc(C)cc5)c(/C=N/NC(=N)N)n43)c2/C=N/NC(=N)N)cc1 with Quadruplex DNA and state it.
Response: 18.5

Query: Recall the recorded ΔTm for C(=N\NC1=NCCN1)/c1c(-c2ccsc2)nc2n1ccc1nc(-c3ccsc3)c(/C=N/NC3=NCCN3)n12 with Quadruplex DNA and state it.
Response: 10.3

Query: Recall the recorded ΔTm for Clc1ccc(-c2nc3ccn4c(/C=N/NC5=NCCN5)c(-c5ccccc5)nc4n3c2/C=N/NC2=NCCN2)cc1 with Quadruplex DNA and state it.
Response: 15.5

Query: Recall the recorded ΔTm for Cc1ccc(-c2nc3n(ccc4nc(-c5ccc(C)cc5)c(/C=N/NC5=NCCN5)n43)c2C=O)cc1 with Quadruplex DNA and state it.
Response: 3.8

---

- TARGET_SYSTEM: Quadruplex DNA
- PROTOCOL: Displacement of thiazole orange from c-kit2 G4 quadruplex d(CGGGCGGGCGCTAGGGAGGGT) DNA (unknown origin) assessed as relative affinity by fluorescent intercalator displacement assay
- Format: nucleic-acid assay
METRIC_NAME: pIC50
Would you please state pIC50, meaning minus log10 of the concentration in mol/L, as a bare number?

Query: Look up pIC50 for this compound: Cc1ccc(-c2nc3ccn4c(/C=N/NC5=NCCN5)c(-c5ccccc5)nc4n3c2/C=N/NC2=NCCN2)cc1
Response: 5.92

Query: Look up pIC50 for this compound: Cc1ccc(-c2nc3ccn4c(/C=N/NC(=N)N)c(-c5ccccc5)nc4n3c2/C=N/NC(=N)N)cc1
Response: 5.85

Query: Look up pIC50 for this compound: Clc1ccc(-c2nc3n(ccc4nc(-c5ccccc5)c(/C=N/NC5=NCCN5)n43)c2/C=N/NC2=NCCN2)cc1
Response: 5.85

Query: Look up pIC50 for this compound: Clc1ccc(-c2nc3ccn4c(/C=N/NC5=NCCN5)c(-c5ccccc5)nc4n3c2/C=N/NC2=NCCN2)cc1
Response: 5.77

---

- PROTOCOL: Cytotoxicity against mouse MNMCA1 cells assessed as cell survival preincubated for 24 hrs with compound further incubated for 48 hrs in drug free medium by MTT assay
- Format: functional, cell-based
METRIC_NAME: pIC50
Would you please state pIC50, meaning minus log10 of the concentration in mol/L, as a bare number?

Query: Look up pIC50 for this compound: Cc1ccc(-c2nc3ccn4c(/C=N/NC5=NCCN5)c(-c5ccccc5)nc4n3c2/C=N/NC2=NCCN2)cc1
Response: 4.54

Query: Look up pIC50 for this compound: N=C(N)N/N=C/c1c(-c2ccccc2)nc2ccn3c(CO)c(-c4ccccc4)nc3n12
Response: 4.45

Query: Look up pIC50 for this compound: N=C(N)N/N=C/c1c(-c2ccccc2)nc2ccn3c(C=O)c(-c4ccccc4)nc3n12
Response: 5.72

Query: Look up pIC50 for this compound: Clc1ccc(-c2nc3ccn4c(/C=N/NC5=NCCN5)c(-c5ccccc5)nc4n3c2/C=N/NC2=NCCN2)cc1
Response: 4.63

Query: Look up pIC50 for this compound: OCc1c(-c2ccccc2)nc2n1ccc1nc(-c3ccccc3)c(/C=N/NC3=NCCN3)n12
Response: 4.92

Query: Look up pIC50 for this compound: NCCOc1cc(C(=O)Nc2cc(OCCN)c3ccccc3n2)nc(C(=O)Nc2cc(OCCN)c3ccccc3n2)c1 [PYRIDOSTATIN]
Response: 4.57

Query: Look up pIC50 for this compound: Cc1ccc(-c2nc3ccn4c(/C=N/NC(=N)N)c(-c5ccccc5)nc4n3c2/C=N/NC(=N)N)cc1
Response: 4.41

Query: Look up pIC50 for this compound: O=Cc1c(-c2ccccc2)nc2n1ccc1nc(-c3ccccc3)c(/C=N/NC3=NCCN3)n12
Response: 5.64

---

- TARGET_SYSTEM: Quadruplex DNA
- PROTOCOL: Binding affinity to c-kit1 G4 quadruplex d(DNA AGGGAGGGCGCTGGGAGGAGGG) DNA (unknown origin) assessed as dissociation constant by Microscale thermophoresis analysis
- Type: nucleic-acid assay
Give log10 of Kd for every item shown.
In plain terms, each number is the log10 of measured Kd in µM.

Query: Look up log10 of Kd for this compound: N=C(N)N/N=C/c1c(-c2ccccc2)nc2ccn3c(CO)c(-c4ccccc4)nc3n12
Response: 0.30

Query: Look up log10 of Kd for this compound: Clc1ccc(-c2nc3n(ccc4nc(-c5ccccc5)c(/C=N/NC5=NCCN5)n43)c2/C=N/NC2=NCCN2)cc1
Response: -1.15

Query: Look up log10 of Kd for this compound: Cc1ccc(-c2nc3ccn4c(/C=N/NC5=NCCN5)c(-c5ccccc5)nc4n3c2/C=N/NC2=NCCN2)cc1
Response: -0.92

Query: Look up log10 of Kd for this compound: OCc1c(-c2ccccc2)nc2n1ccc1nc(-c3ccccc3)c(/C=N/NC3=NCCN3)n12
Response: 0.90

Query: Look up log10 of Kd for this compound: N=C(N)N/N=C/c1c(-c2ccccc2)nc2ccn3c(C=O)c(-c4ccccc4)nc3n12
Response: -0.52

Query: Look up log10 of Kd for this compound: Cc1ccc(-c2nc3ccn4c(/C=N/NC(=N)N)c(-c5ccccc5)nc4n3c2/C=N/NC(=N)N)cc1
Response: -1.52

Query: Look up log10 of Kd for this compound: Clc1ccc(-c2nc3ccn4c(/C=N/NC5=NCCN5)c(-c5ccccc5)nc4n3c2/C=N/NC2=NCCN2)cc1
Response: -0.42
